Sourced from patent US20220213061A9

Entries and their pEC50
- TARGET: recombinant human NR2F6 protein (Homo sapiens)
- Sequence (P10588 whole entry): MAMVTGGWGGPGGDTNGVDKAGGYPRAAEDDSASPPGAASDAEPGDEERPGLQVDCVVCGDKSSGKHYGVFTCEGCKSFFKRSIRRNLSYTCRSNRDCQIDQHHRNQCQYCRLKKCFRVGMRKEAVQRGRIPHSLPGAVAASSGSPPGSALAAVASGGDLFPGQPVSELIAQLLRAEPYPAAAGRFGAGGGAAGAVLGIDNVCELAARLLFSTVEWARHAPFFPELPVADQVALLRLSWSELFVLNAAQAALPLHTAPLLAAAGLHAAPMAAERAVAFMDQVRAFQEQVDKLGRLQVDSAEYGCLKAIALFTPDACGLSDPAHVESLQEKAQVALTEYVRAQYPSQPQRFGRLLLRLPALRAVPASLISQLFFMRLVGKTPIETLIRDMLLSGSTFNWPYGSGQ
- ASSAY_INFO: Biochemical NR2F6 binding assay (EnSpire label-free)
- CONDITION_DESCRIPTION: label-free binding to immobilized purified recombinant human NR2F6; ligands 1 nM to 100 uM, 1% DMSO
pEC50: −log10 of the molar value. Counter-ions that a name gives are not always drawn.

Value lookup for pEC50; key = O=C(N[C@H]1C[C@H](c2ccccc2)C1)[C@@H]1CNC[C@H]1c1ccccc1 [Compound I-117, hydrochloride] 5.00 to 6.00

Value lookup for pEC50; key = c1ccc([C@@H]2CNC[C@H]2Oc2nc(-c3cccnc3)cs2)cc1 (racemic) [Compound I-5] 5.00 to 6.00

Value lookup for pEC50; key = O=C(Nc1cccc2ccccc12)[C@@H]1CNC[C@H]1c1ccc(C(F)(F)F)cc1 [Compound I-110, hydrochloride] 5.00 to 6.00

Value lookup for pEC50; key = O=C(Nc1cc2ccccc2cn1)[C@@H]1CNC[C@H]1c1ccccc1 (racemic) [Compound I-14, dihydrochloride] 5.00 to 6.00

Value lookup for pEC50; key = O=C(Nc1cccc(Cc2ccccc2)c1)[C@@H]1CNC[C@H]1c1ccccc1 (racemic) [Compound I-85, hydrochloride] 5.00 to 6.00
